Origin of the recorded values: ChEMBL document CHEMBL1811812

assay: Half life in human at […], po; format: ADME, organism-based; design: route oral; conditions: in vivo
Measured attribute: half-life (min)
Give bare numbers, in min.

**Query** Query half-life for C[C@@H](c1ccccn1)c1c(CCN(C)C)sc2ccccc12
**Result** 216

----------
assay: AUC (0 to t) in human at […], po; format: ADME, organism-based; parameters: route oral; details: plasma
Measured attribute: AUC(0-t) (ng·h/mL)
Give bare numbers, in ng·h/mL.

**Query** Query AUC(0-t) for C[C@@H](c1ccccn1)c1c(CCN(C)C)sc2ccccc12
**Result** 1.9

----------
experiment: Clearance in EEG/EMG rat model; conditions: in vivo
Measured attribute: clearance

**Query** Query clearance for C[C@@H](c1ccccn1)c1c(CCN(C)C)sc2ccccc12
**Result** > 68 mL/min/kg

----------
assay: Inhibition of H2 receptor
Measured attribute: Ki (nM)
Give bare numbers, in nM.

**Query** Query Ki for COc1nccnc1[C@H](C)C1=C(CCN(C)C)Cc2cc(F)ccc21
**Result** 4.5

----------
assay: Plasma concentration in human at […] after 1 hr; format: ADME, organism-based
Measured attribute: concentration at 1 h (ng/mL)
Answers are plain numbers, in ng/mL.

**Query** Query concentration at 1 h for C[C@@H](c1ccccn1)c1c(CCN(C)C)sc2ccccc12
**Result** 4

----------
experiment: Elimination half life in human at 50 mg by RIA; format: ADME, organism-based; settings: in vivo, read-out: beta t1/2 (converted)
Measured attribute: half-life (h)
Answers are plain numbers, in h.

**Query** Query half-life for CN(C)CCC=C1c2ccccc2COc2ccccc21 [DOXEPIN]
**Result** 18

----------
assay: Dissociation constant, pKa of the compound
Measured attribute: pKa
Answers are plain numbers.

**Query** Query pKa for C[C@@H](c1ccccn1)c1c(CCN(C)C)sc2ccccc12
**Result** 8.5
